TARGET_UNDER_TEST: UniProtKB Q9HBX9
Sequence (Q9HBX9 whole entry): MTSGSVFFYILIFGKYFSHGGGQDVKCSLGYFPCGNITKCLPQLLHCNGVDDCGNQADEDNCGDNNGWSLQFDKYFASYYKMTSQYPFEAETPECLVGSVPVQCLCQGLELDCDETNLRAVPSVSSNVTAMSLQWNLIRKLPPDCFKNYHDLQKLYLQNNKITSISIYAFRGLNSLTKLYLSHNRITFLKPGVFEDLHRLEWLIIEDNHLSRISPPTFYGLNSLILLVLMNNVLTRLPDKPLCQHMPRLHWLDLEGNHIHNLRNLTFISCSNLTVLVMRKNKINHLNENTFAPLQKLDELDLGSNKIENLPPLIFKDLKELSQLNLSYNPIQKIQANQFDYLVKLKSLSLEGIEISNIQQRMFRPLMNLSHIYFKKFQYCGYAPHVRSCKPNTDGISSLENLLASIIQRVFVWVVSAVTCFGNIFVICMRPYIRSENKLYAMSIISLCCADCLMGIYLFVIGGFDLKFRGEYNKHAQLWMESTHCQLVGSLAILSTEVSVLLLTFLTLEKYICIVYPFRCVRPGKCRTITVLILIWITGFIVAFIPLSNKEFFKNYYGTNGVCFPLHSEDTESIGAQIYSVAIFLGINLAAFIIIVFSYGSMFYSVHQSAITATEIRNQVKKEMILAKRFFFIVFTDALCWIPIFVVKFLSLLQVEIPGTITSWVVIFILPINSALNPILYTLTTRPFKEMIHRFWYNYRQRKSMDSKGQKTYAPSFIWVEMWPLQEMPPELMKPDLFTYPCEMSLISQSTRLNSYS
ASSAY_TEXT: Agonist activity at RXFP1 receptor (unknown origin) expressed in HEK293 cells assessed as stimulation of cAMP production incubated for 30 mins by TR-FRET based HTRF assay
Type: functional, cell-based
ASSAY_SETUP: read-out: AC50
Lab note: cut-off is 7 µM. Strictly less in AC50 is 1 (yes). Exactly 7 µM or more is 0 (no).

CSc1cccc(NC(=O)c2ccccc2NC(=O)C2CCCCC2)c1
1 (yes)
O=C(Nc1cccc(C(F)(F)F)c1)c1ccccc1NC(=O)c1ccccc1Oc1ccccc1
1 (yes)
CCOc1ccccc1C(=O)Nc1ccccc1C(=O)Nc1cccc(C(C)(C)C)c1
1 (yes)
COc1cccc(OC)c1C(=O)Nc1ccccc1C(=O)Nc1cccc(C(F)(F)F)c1
0 (no)
Cc1ccccc1C(=O)Nc1ccccc1C(=O)Nc1cccc(C(F)(F)F)c1
1 (yes)
COc1ccccc1C(=O)Nc1ccccc1C(=O)Nc1cccc(S(=O)(=O)C(F)(F)F)c1
1 (yes)
O=C(Nc1cccc(C(F)(F)F)c1)c1ccccc1NC(=O)c1ccccc1OCCN1CCCCC1
1 (yes)
O=C(Nc1cccc(C(F)(F)F)c1)c1ccccc1NCc1cccc(C(F)(F)F)c1
0 (no)
COc1ccccc1C(=O)Nc1ccccc1C(=O)Nc1cccc(SC)c1
1 (yes)
CCCOc1ccccc1C(=O)Nc1ccccc1C(=O)Nc1cccc(S(=O)(=O)C(F)(F)F)c1
1 (yes)
C#Cc1cccc(NC(=O)c2ccccc2NC(=O)C2CCCCC2)c1
1 (yes)
O=C(Nc1cccc(C(F)(F)F)c1)c1ccccc1Nc1ccccc1
1 (yes)
O=C(Nc1cccc(-c2ccccc2C(F)(F)F)c1)c1ccccc1NC(=O)C1CCCCC1
1 (yes)
O=C(Nc1ccccc1C(=O)Nc1cccc(C(F)(F)F)c1)c1ccc2ccccc2c1
0 (no)
CC(C)(C)OC(=O)Nc1ccccc1C(=O)Nc1cccc(C(F)(F)F)c1
1 (yes)
CCOc1ccccc1-c1nc2ccccc2c2nc3ccc(C(F)(F)F)cc3n12
0 (no)
O=C(Nc1cccc(-c2cccs2)c1)c1ccccc1NC(=O)C1CCCCC1
0 (no)
O=C(Nc1ccccc1C(=O)Nc1cccc(C(F)(F)F)c1)c1ccco1
1 (yes)
COc1ccccc1CNc1ccccc1C(=O)Nc1cccc(C(F)(F)F)c1
0 (no)
Cc1ccc(CNC(=O)c2ccccc2NC(=O)C2CCCCC2)o1
0 (no)
COc1ccc(C(=O)Nc2ccccc2C(=O)Nc2cccc(C(F)(F)F)c2)cc1
0 (no)
CS(=O)(=O)c1cccc(NC(=O)c2ccccc2NC(=O)C2CCCCC2)c1
0 (no)
O=C(Nc1cccc(C(F)(F)F)c1)c1ccccc1NC(=O)C1CCCCCC1
1 (yes)
O=C(NCc1cccs1)c1ccccc1NC(=O)C1CCCCC1
0 (no)
COc1cccc(C(=O)Nc2ccccc2C(=O)Nc2cccc(C(F)(F)F)c2)c1
1 (yes)
O=C(Nc1ccc(C(F)(F)F)cc1)c1ccccc1NC(=O)C1CCCCC1
0 (no)
O=C(Nc1ccc(F)cc1)c1ccccc1NC(=O)C1CCCCC1
0 (no)
CCOc1ccccc1C(=O)Nc1ccccc1C(=O)Nc1cccc(C(F)(F)F)c1
1 (yes)
O=C(Nc1ccccc1C(=O)Nc1cccc(C(F)(F)F)c1)c1cccs1
1 (yes)
O=C(Nc1ccccc1C(=O)Nc1cccc(C(F)(F)F)c1)c1ccc(Cl)cc1
1 (yes)
O=C(Nc1ccccc1C(=O)Nc1cccc(S(=O)(=O)C(F)(F)F)c1)c1ccccc1I
1 (yes)
CCC(CC)C(=O)Nc1ccccc1C(=O)Nc1cccc(C(F)(F)F)c1
1 (yes)
COc1ccccc1C(=O)Nc1ccccc1C(=O)Nc1cccc(S(C)(=O)=O)c1
1 (yes)
COc1cccc(NC(=O)c2ccccc2NC(=O)C2CCCCC2)c1
0 (no)
O=C(Nc1ccccc1C(=O)Nc1cccc(C(F)(F)F)c1)c1ccccc1
1 (yes)
O=C(Nc1cccc(S(=O)(=O)C(F)(F)F)c1)c1ccccc1NC(=O)c1ccccc1OCC(F)(F)F
1 (yes)
CCOc1ccccc1C(=O)Nc1ccccc1C(=O)Nc1cccnc1
0 (no)
CCOc1ccccc1C(=O)Nc1cnccc1C(=O)Nc1cccc(S(=O)(=O)C(F)(F)F)c1
1 (yes)
O=C(Nc1cccc(C(F)(F)F)c1)c1ccccc1NC(=O)C1CCC1
1 (yes)
O=C(Nc1ccc2c(c1)OCO2)c1ccccc1NC(=O)C1CCCCC1
0 (no)
O=C(Nc1ccccc1C(=O)Nc1cccc(C(F)(F)F)c1)c1cccc(Br)c1
1 (yes)
CCOc1ccccc1C(=O)Nc1ccccc1-c1nc2cc(C(F)(F)F)ccc2[nH]1
0 (no)
